subject-of-test: HPK1
assay-procedure: HPK1 Lantha Binding Assay ("Lanth")
condition-summary: Table B2, read-out: HPK1 Ki (nM), L = Lanth
experimental-readout: Ki (nM)

{"columns": ["compound", "Ki / nM"],
 "data": [
  ["Cc1ccncc1-c1cc2cc(NC(=O)[C@H]3[C@@H](C)[C@@H]3c3cnn(C)c3)ncc2c(N)n1 (single isomer, unassigned)", 0.11]
]}

[I] Cc1cccc(F)c1-c1cc2cc(NC(=O)[C@@H]3[C@H](C)[C@H]3c3cnn(C)c3)ncc2c(N)n1 (single isomer, unassigned)
[II] Cc1ccncc1-c1cc2cc(Nc3ccc(CC#N)cn3)ncc2c(N)n1
[III] Cc1ccncc1-c1cc2cc(NC(=O)C3CC3)ncc2c(N)n1
[IV] CNC(=O)Nc1cc2cc(-c3cnccc3C)nc(N)c2cn1
Query: Sort the 4 compounds by Ki; largest first, smallest last. # the answer lists labels in the order requested
Reply: IV, III, I, II

###

subject-of-test: HPK1
assay-procedure: HPK1 Lantha Binding Assay ("Lanth")
condition-summary: Table B1-1, read-out: HPK1 Ki (μM) (Lanth)
experimental-readout: Ki (µM)

{"columns": ["molecule", "Ki [µM]"],
 "data": [
  ["Cc1ccncc1-c1cc2cc(NC(=O)[C@@H]3C[C@@]34CCNC(=O)C4)ncc2c(N)n1", 0.00577],
  ["CCc1ccncc1-c1cc2cc(Nc3cnn(CCO)c3)ncc2c(N)n1 [Compound 168]", 0.002],
  ["Cc1ccncc1-c1nc(N)c2cnc(NC(=O)C3CC3)cc2c1-c1cn[nH]c1", 0.000695],
  ["N#C[C@H]1C[C@@H]1C(=O)Nc1cc2cc(-c3cnccc3-c3cc[nH]n3)nc(N)c2cn1", 0.00356],
  ["Cc1ccncc1-c1cc2cc(NC(=O)C3CC3)ncc2c(N)n1", 0.00068],
  ["Cc1c(F)cncc1-c1cc2cc(NC(=O)[C@@H]3C[C@@H]3F)ncc2c(N)n1", 0.0161]
]}

[I] N#Cc1ccncc1-c1cc2cc(NC(=O)[C@@H]3C[C@@H]3F)ncc2c(N)n1
[II] CCc1ccncc1-c1cc2cc(NC(=O)N(C)C)ncc2c(N)n1
Query: # query: argmin of Ki over I and II Give the label of your selection.
Reply: I
(I: 0.0226 µM, II: 0.0341 µM)

###

subject-of-test: HPK1
assay-procedure: HPK1 Lantha Binding Assay ("Lanth")
condition-summary: Table B1-1, read-out: HPK1 Ki (μM) (Lanth)
experimental-readout: Ki (nM)

Illustrative cases are given below, each with its answer.
{"columns": ["compound", "experimental-readout", "quantitative-result"],
 "data": [
  ["Cc1ccncc1-c1cc2cc(NC(=O)[C@H]3C[C@@]34CCNC(=O)C4)ncc2c(N)n1", "Ki", 13.1],
  ["Cc1ccncc1-c1cc2cc(NC(=O)C3C4CNCC43)ncc2c(N)n1 (centres unmarked)", "Ki", 2.38],
  ["Cc1cc(CO)ncc1-c1cc2cc(NC(=O)C3CC3)ncc2c(N)n1", "Ki", 1.54]
]}

[a] Cc1ccncc1-c1cc2cc(NC(=O)[C@@H]3C[C@H]3C(C)(C)O)ncc2c(N)n1
[b] Cc1cc(-c2ncco2)ncc1-c1cc2cc(NC(=O)[C@@H]3C[C@H]3c3cnn(C)c3)ncc2c(N)n1
[c] Cc1ccncc1-c1nc(N)c2cnc(NC(=O)[C@H]3C[C@@H]3c3cn[nH]c3)cc2c1F
[d] Cc1ccccc1-c1cc2cc(NC(=O)[C@H]3C[C@@H]3c3cnn(C)c3)ncc2c(N)n1
[e] Cn1nccc1-c1cc2cc(NC(=O)[C@@H]3C[C@@H]3F)ncc2c(N)n1
Query: Rank items: key Ki, increasing. Answer with the labels in sequence, matching the requested order.
Reply: c, d, b, a, e

Data origin, for the record: patent US11034692B1
